Test system: A549 NSCLC
Method summary: NCI tumour cell line growth inhibition, 48 h
Where a SMILES comes first, the peptide text is derived from it. [ ]: non-standard residue; d: D form. The star is where a group is joined. ξ: configuration not given here. NMeY = CN[C@@H](Cc1ccc(O)cc1)C(=O)O; Cbz = O=C(OCc1ccccc1)*; ξA = CC(N)C(=O)O
Examples of compounds with documented TGI follow.

Compound	Censoring sign	TGI [µM]
O=C(Cn1c2ccc(Br)cc2c2nc3ccccc3nc21)NC1CCCCC1	>	100
CC1Cc2c(N(C)C)ncnc2N(C)c2ccc(Cl)cc21 (stereo unspecified)	>	100
c1ccc2c(c1)nc(NCCN1CCNCC1)c1c3ccccc3[nH]c21	=	1.21
Clc1ccc2c(Cl)ncnc2c1	>	100
COc1cccc(-c2nn(-c3ccccc3)cc2-c2ccnc(NCCNC(=O)Nc3ccc(Cl)c(Cl)c3)c2)c1	=	12.5
O=C1c2cccnc2C(=O)c2c1c(C(=O)OCCCN1CCOCC1)c1ccccn21	=	0.072
Oc1ccc(-c2c3c(nc4c2CCc2ccc(Br)cc2-4)-c2cc(Br)ccc2CC3)cc1	=	40.8
COc1ccc(C(=O)Cc2cc(OC)ccc2OC)cc1	>	100
O=C(CCCCCCCCCCc1ccccc1)c1c(O)cccc1O	=	76.1
COC(=O)/C(C#N)=C1\N=NNN1CCCN1CCOCC1	>	100
CC1=NN(c2ccc(C)cc2)C2(C1)SCC(=O)N2c1nc2ccccc2s1 (stereo unspecified)	>	100
O=C1OC(c2ccc(O)cc2)(c2ccc(O)cc2)c2cccc3cccc1c23	=	36.2
COc1cc(S(=O)(=O)Nc2nc(-c3ccc(N4C(=O)/C(=C/c5ccccc5)N=C4c4ccccc4)cc3)cs2)ccc1Cl	>	100
Nc1ncnc2occ(-c3ccc(NC(=O)Nc4cc(C(F)(F)F)cc(C(F)(F)F)c4)cc3)c12	=	7.18
CC(=O)N[C@@H](Cc1ccc(O)cn1)C(=O)NCc1ccc2c(c1)OCO2	>	100
CN1C(=O)c2cc(Cl)nc3c(NC(=O)c4cccc(Cl)c4)c(Cl)c(NC(=O)c4cccc(Cl)c4)c1c23	=	14.8
CCCCCCCCCCCCC(=O)NCC(=O)NC(Cc1ccccc1)C(=O)Oc1ccc([N+](=O)[O-])cc1 (stereo unspecified)	>	100
C/C(=N\NS(=O)(=O)c1ccc(C)cc1)c1ccc[n+]([O-])n1	>	100
Cc1[nH]c(=O)nc(N/N=C/c2ccc(Cl)c(Cl)c2)c1C(=O)Nc1ccc(Cl)c(Cl)c1	=	38.9
COc1ccc(C[C@@H](C(=O)NCC(N)=O)N(C)C(=O)[C@@H]2CCCN2C(=O)[C@H](CC(C)C)NC(=O)C(C)NC(=O)OCc2ccccc2)cc1 (stereo partly specified) (Cbz-[ξA]LP[NMeY](Me)G-NH2)	>	100
CC(C)(C)OC(=O)NC(Cc1ccccc1)C(=O)N[C@H]1c2ccsc2/C(=N/O)[C@H]1O (stereo partly specified)	>	100

---

Examples of molecules with documented TGI follow.
System: RPMI-8226 leukemia
Method summary: NCI tumour cell line growth inhibition, 48 h
Where a SMILES comes first, the peptide text is derived from it. [ ]: non-standard residue; d: D form. The star is where a group is joined. ξ: configuration not given here. NMeY = CN[C@@H](Cc1ccc(O)cc1)C(=O)O; Cbz = O=C(OCc1ccccc1)*; ξA = CC(N)C(=O)O

Molecule	TGI
Cc1cc(N(CCC#N)S(=O)(=O)c2ccccc2)ccc1C=O	> 100 µM
CCCCC[C@H](O)[C@H](C)C=C1SCCCS1	> 100 µM
Cc1cnc(Cl)nc1C(C#N)c1nc2ccccc2n1C (stereo unspecified)	> 100 µM
COc1ccc(C[C@@H](C(=O)NCC(N)=O)N(C)C(=O)[C@@H]2CCCN2C(=O)[C@H](CC(C)C)NC(=O)C(C)NC(=O)OCc2ccccc2)cc1 (stereo partly specified) (Cbz-[ξA]LP[NMeY](Me)G-NH2)	> 100 µM
CC1=NN(c2nc(N)nc(/C(C#N)=C/c3ccncc3)n2)C(C)(C)C1	> 100 µM
COc1cc2oc3ccccc3c(=O)c2cc1CSc1ccccc1N	> 87.6 µM

---

System: HT29 colon
Method summary: NCI tumour cell line growth inhibition, 48 h
Reported endpoint: GI50

> print(dat)
                                   compound  assay.value
1  c1ccc2c(c1)nc(NCCN1CCNCC1)c1c3ccccc3[nH]c21     0.167 µM
2  COC(=O)C(C)N1C(=O)c2ccccc2I1OC(C)=O (centres undefined)      26.3 µM
3  Cc1ccc(C2=Nc3c(N)ncnc3NC(c3cccc(Nc4ccnc5cc(C(F)(F)F)ccc45)c3)C2)cc1 (centres undefined)      2.45 µM
4  CC1Cc2c(N(C)C)ncnc2N(C)c2ccc(Cl)cc21 (centres undefined)      3.22 µM

---

Tested on: KM12 colon
Method summary: NCI tumour cell line growth inhibition, 48 h
Reported endpoint: TGI

Compound	Assay value
COC(=O)Cc1c(C2=Nc3ccccc3C2(O)CC(=O)OC)[nH]c2ccccc12 (stereo unspecified)	> 100 µM
CC1OC(=O)N(CCCC=C2SCCCS2)C1=O (stereo unspecified)	> 100 µM
O=C1/C(=C/c2ccccc2S)N=C(c2ccccc2)N1c1ccc2c(c1)Sc1cc(N3C(=O)/C(=C/c4ccccc4S)N=C3c3ccccc3)ccc1N2	> 100 µM
N#Cc1c(=O)c2cccnc2n2c1[nH]c1ccccc12	> 100 µM
O=C(c1cccs1)N(C(=S)N1CCN(c2ccccc2)CC1)c1ccccc1	> 100 µM
O=C1C=C(Nc2cccc(Br)c2)c2ccccc2C1=O	> 100 µM
COc1cc2oc3ccccc3c(=O)c2cc1CSc1ccccc1N	84 µM
O=C1[C@H]2C(c3ccccc3)=NN(C(=O)c3ccccc3)[C@H]2C(=O)N1c1ccccc1	> 100 µM
CC(=O)[CH-]C(=O)c1ccccc1.CC(=O)[CH-]C(=O)c1ccccc1.[O]=[U+2]=[O]	9.83 µM
COC(=O)[C@H](Cc1ccccc1)NC(=O)c1csc([C@@H](C[C@H](C(C)C)N(C)C(=O)[C@@H](NC(=O)[C@H]2CCCCN2C)C2CC2)OC(C)=O)n1	> 25 µM
Brc1ccc2c(c1)C1(c3cc(Br)ccc3-2)c2cc(Br)ccc2-c2ccc(Br)cc21	> 100 µM
COc1cc(OC)c(CSCC(NC(=O)OCC2c3ccccc3-c3ccccc32)C(=O)O)c(OC)c1 (stereo unspecified)	> 10 µM
CC(C)OP(=O)(CP(=O)(OC(C)C)OC(C)C)OC(C)C.[CH3][Sn]([Br])([Br])[Br]	> 100 µM
Oc1cccc(-c2nc3ccccc3s2)c1	48.6 µM
COc1ccc(C[C@H]2C[C@@H](O)[C@@H](C)C/C=C/Cc3cccc(O)c3C(=O)O2)cn1	62.4 µM
CN1CCCC1c1cccnc1.O=C(O)c1ccccc1O.O=C([O-])c1ccccc1[OH2+].O=C([O-])c1ccccc1[OH2+].O=C([O-])c1ccccc1[OH2+].[Mn+2] (stereo unspecified)	> 100 µM

---

Examples of compounds with documented TGI follow.
Tested on: HOP-18 NSCLC
Method summary: NCI tumour cell line growth inhibition, 48 h
Reported endpoint: TGI

> print(dat)
                                    compound  assay.value
 1  CC(C)c1ccc(/C=C(\NC(=O)c2ccccc2)c2nc3ccccc3[nH]2)cc1     > 100 µM
 2        COc1ccc([Se]c2ccc(OC)cc2OC)c(OC)c1        86 µM
 3       O=C(O)c1cc(Cl)cc(NC(=O)C(Cl)Cl)c1Cl     > 100 µM
 4  CC(=O)O[C@]12CCCCCCC1C1(O)C(O)CCC[C@H]12 (stereo partly drawn)     > 100 µM
 5  Cc1ccc(NC(=O)CCC(=O)C2CC(=O)CC/C2=N\NC(=O)c2cc3ccccc3cc2O)cc1C (stereo not drawn)     > 100 µM
 6  C/C(=N\NS(=O)(=O)c1ccc(C)cc1)c1ccc[n+]([O-])n1     > 100 µM
 7   Cc1cc(N(CCC#N)S(=O)(=O)c2ccccc2)ccc1C=O     > 100 µM
 8             CCCCN(CCCC)C(=NCc1ccccc1)NC#N     > 100 µM
 9  O=c1[nH]c(=O)n(C2CC(O)C(CO)O2)cc1C#Cc1ccc(C(F)(F)F)cc1 (stereo not drawn)     > 100 µM
10  CCOC(=O)C1C(c2cc(OC)c(O)c(OC)c2)c2cc3c(cc2OC1(C)O)OCO3 (stereo not drawn)     > 100 µM
11  COC(=O)/C(=N\NC(=O)c1ccccc1O)C(C#N)c1ccc(Cl)cc1 (stereo not drawn)     > 100 µM
12  NC1=NS(=O)(=O)N=C(N)C1=Cc1ccc([N+](=O)[O-])o1      31.8 µM
13  CCOC(=O)CCC1(C(=O)OC)CCCC1=O (stereo not drawn)     > 100 µM
